- target-or-system: androgen receptor (AR-LBD) (Rattus norvegicus, UniProt P15207)
- Construct: 5 μL of 2×AR-LBD/Fluoromone AL Red Complex contained in the kit; purchased Invitrogen
- Sequence (P15207 651-882 limits assumed): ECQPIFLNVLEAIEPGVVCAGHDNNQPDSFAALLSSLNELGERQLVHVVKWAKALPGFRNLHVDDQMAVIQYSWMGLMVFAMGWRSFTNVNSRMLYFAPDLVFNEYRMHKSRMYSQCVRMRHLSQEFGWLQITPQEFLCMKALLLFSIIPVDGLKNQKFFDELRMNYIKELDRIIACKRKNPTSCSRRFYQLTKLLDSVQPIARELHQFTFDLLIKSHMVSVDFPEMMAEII
- experimental-protocol: Evaluation of androgen receptor affinity (PolarScreen Androgen Receptor Competitor Assay Kit, Red; fluorescence polarization)
- study-conditions: 22° C. for 5 hours, relative to binding rate of 1 μM DHT, read-out: AR affinity (pEC50) (converted)
- Protocol: Evaluation of an Androgen Receptor Affinity To examine the interaction of a compound with an androgen receptor, evaluation was carried out in accordance with the following procedure using PolarScreen™ Androgen Receptor Competitor Assay Kit, Red (Invitrogen). To 2 wells each of a 384 well black plate was added 5 μL of the compound solution. […] After 5 hours of the reaction, fluorescence polarization was measured and the affinity was evaluated. […]
measured-metric: EC50 (nM)
// return numeric value only (unit: nM, not printed)

Please look up its EC50: Cc1sc(N(CCc2ccc(Cl)cc2)Cc2ccc(OC(F)(F)F)cc2)nc1C(=O)NS(=O)(=O)C(F)(F)F
316

Please look up its EC50: Cc1sc(N(CC2CCC2)c2ccc(C#N)cc2)nc1C(=O)NS(C)(=O)=O
501

Please look up its EC50: COCCCOc1ccc(CN(c2ccc(C#N)cc2)c2nc(C(=O)NS(C)(=O)=O)c(C)s2)cc1
39.8

Please look up its EC50: Cc1sc(N(Cc2ccc(C3CC3)nc2)c2ccc(C#N)cc2)nc1C(=O)NS(C)(=O)=O
251

Please look up its EC50: Cc1sc(N(Cc2ccc(Cl)cc2)c2ccc(C(F)(F)F)nc2)nc1C(=O)NS(C)(=O)=O
126

Please look up its EC50: COc1cccc(CN(c2ccc(C#N)cc2)c2nc(C(=O)NS(C)(=O)=O)c(C)s2)c1
63.1

Please look up its EC50: Cc1sc(N(Cc2ccc(F)cc2Br)c2ccc(C#N)cc2)nc1C(=O)NS(C)(=O)=O
79.4

Please look up its EC50: CCS(=O)(=O)NC(=O)c1nc(N(CCC2CCCCC2)Cc2ccc(OC(F)(F)F)cc2)sc1C
200

Please look up its EC50: Cc1cc(CN(CCc2ccc(Cl)cc2)c2nc(C(=O)NS(C)(=O)=O)c(C)s2)no1
316

Please look up its EC50: Cc1sc(N(Cc2ccc(Cl)cn2)c2ccc(C#N)cc2)nc1C(=O)NS(C)(=O)=O
200

Please look up its EC50: Cc1sc(N(Cc2ncc(F)cc2F)c2ccc(C#N)cc2)nc1C(=O)NS(C)(=O)=O
501

Please look up its EC50: Cc1sc(N(Cc2cccc(CO)c2)c2ccc(C#N)cc2)nc1C(=O)NS(C)(=O)=O
200

Please look up its EC50: Cc1sc(N(Cc2cc(C(F)(F)F)ccn2)c2ccc(C#N)cc2)nc1C(=O)NS(C)(=O)=O
200

Please look up its EC50: Cc1sc(N(Cc2cccc(-n3cccn3)c2)c2ccc(C#N)cc2)nc1C(=O)NS(C)(=O)=O
63.1

Please look up its EC50: Cc1sc(N(Cc2ccc(C(F)(F)F)c(C#N)c2)c2ccc(C#N)cc2)nc1C(=O)NS(C)(=O)=O
63.1

Please look up its EC50: Cc1sc(N(CC2Cc3ccccc3C2)c2ccc(C#N)cc2)nc1C(=O)NS(C)(=O)=O
50.1

Please look up its EC50: CS(=O)(=O)NC(=O)c1nc(N(Cc2ccc3occc3c2)c2ccc(C#N)cc2)sc1Br
39.8

Please look up its EC50: CCc1oc(N(Cc2ccc(Cl)c(F)c2)c2ccc(C#N)cc2)nc1C(=O)NS(C)(=O)=O
39.8

Please look up its EC50: Cc1sc(N(CC[C@@H]2CC[C@@H](O)C2)c2ccc(C#N)cc2)nc1C(=O)NS(C)(=O)=O (racemic)
1260

Please look up its EC50: CCc1oc(N(Cc2ccc(Br)c(F)c2)c2ccc(C#N)cc2)nc1C(=O)NS(C)(=O)=O
25.1

Please look up its EC50: Cc1sc(N(CCc2ccc(Cl)cc2)Cc2ccc(C#N)cc2)nc1C(=O)NS(C)(=O)=O
31.6

Please look up its EC50: Cc1cccc(CN(c2ccc(C#N)cc2)c2nc(C(=O)NS(C)(=O)=O)c(C)s2)c1
25.1

Please look up its EC50: COc1ccc(F)cc1CN(c1ccc(C#N)cc1)c1nc(C(=O)NS(C)(=O)=O)c(C)s1
126

Please look up its EC50: CS(=O)(=O)NC(=O)c1nc(N(Cc2ccccc2F)c2ccc(C#N)cc2)sc1Cl
100

Please look up its EC50: Cc1sc(N(CCc2ccccc2F)Cc2ccccc2)nc1C(=O)NS(C)(=O)=O
39.8

Please look up its EC50: CS(=O)(=O)NC(=O)c1nc(N(Cc2ccccc2Cl)c2ccc(C#N)cc2)sc1Br
79.4

Please look up its EC50: Cc1sc(N(Cc2ccc3c(c2)CCO3)c2ccc(C#N)cc2)nc1C(=O)NS(C)(=O)=O
63.1

---

Record form. Attribute: EC50. Fill in for each entry.
- target-or-system: human androgen receptor (Homo sapiens, UniProt P10275)
- Construct: expressed in transfected cells; host or cells: HEK293
- Sequence (P10275 whole entry): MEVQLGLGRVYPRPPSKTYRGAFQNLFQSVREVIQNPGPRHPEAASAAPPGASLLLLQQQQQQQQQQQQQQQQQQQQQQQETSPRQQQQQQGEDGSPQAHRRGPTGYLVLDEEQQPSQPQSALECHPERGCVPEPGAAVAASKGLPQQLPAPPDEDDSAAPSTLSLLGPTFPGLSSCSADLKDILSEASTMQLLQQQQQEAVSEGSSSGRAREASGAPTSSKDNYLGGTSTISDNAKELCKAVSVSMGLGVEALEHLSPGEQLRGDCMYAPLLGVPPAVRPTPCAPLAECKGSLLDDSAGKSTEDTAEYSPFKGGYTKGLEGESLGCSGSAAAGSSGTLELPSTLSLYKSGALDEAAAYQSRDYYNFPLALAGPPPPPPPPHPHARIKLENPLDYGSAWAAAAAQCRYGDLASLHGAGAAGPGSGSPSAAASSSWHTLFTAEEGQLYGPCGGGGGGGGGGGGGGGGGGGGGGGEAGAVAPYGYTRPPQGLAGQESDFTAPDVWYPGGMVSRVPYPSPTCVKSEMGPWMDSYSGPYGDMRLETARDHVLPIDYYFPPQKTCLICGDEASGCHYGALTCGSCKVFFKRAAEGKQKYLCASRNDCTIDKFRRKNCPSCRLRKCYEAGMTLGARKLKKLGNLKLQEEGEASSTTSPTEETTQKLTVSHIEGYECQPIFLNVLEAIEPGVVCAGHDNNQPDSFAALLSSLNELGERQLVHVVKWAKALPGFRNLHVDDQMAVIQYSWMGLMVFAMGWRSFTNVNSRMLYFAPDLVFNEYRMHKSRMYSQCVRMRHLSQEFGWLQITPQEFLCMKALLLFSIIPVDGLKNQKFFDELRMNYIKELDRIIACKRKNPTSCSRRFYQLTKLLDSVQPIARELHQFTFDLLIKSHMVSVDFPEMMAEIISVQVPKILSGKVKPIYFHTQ
- experimental-protocol: Reporter assay of an androgen receptor responsive sequence (luciferase, transiently transfected HEK293 cells)
- Type: cell-based
- study-conditions: 24 hours incubation, relative to activity of 100 nM DHT, read-out: AR transcriptive activity (pEC50) (converted)

Please look up its EC50: Cc1sc(N(CCCOCc2ccccc2)c2ccc(C#N)cc2)nc1C(=O)NS(C)(=O)=O [Compound 359]
> 10000 nM

Please look up its EC50: CS(=O)(=O)NC(=O)c1nc(N(Cc2ccccc2F)c2ccc(C#N)cc2)sc1Cl [Example 257]
79.4 nM

Please look up its EC50: Cc1sc(N(Cc2ccc(OC(F)F)nc2)c2ccc(C#N)cc2)nc1C(=O)NS(C)(=O)=O [Compound 524]
501 nM

Please look up its EC50: Cc1sc(N(CCC(C)(C)C)c2ccc(C#N)cc2)nc1C(=O)NS(C)(=O)=O [Compound 90]
> 10000 nM

Please look up its EC50: Cc1sc(N(Cc2ccc(Cl)c(Cl)c2)c2ccc(C#N)cc2)nc1C(=O)NS(C)(=O)=O [Compound 100]
15.8 nM

Please look up its EC50: Cc1oc(N(CCc2ccc(OC(F)(F)F)cc2)Cc2nc(C3CC3)no2)nc1C(=O)NS(C)(=O)=O [Compound 560]
1000 nM

Please look up its EC50: Cc1sc(N(CCC2CCCCC2)Cc2ccc(Cl)cc2)nc1C(=O)NS(=O)(=O)Cc1cccnc1 [Compound 325]
398 nM

Please look up its EC50: Cc1sc(N(Cc2ccc(OCc3ccccc3)cc2)c2ccc(C#N)cc2)nc1C(=O)NS(C)(=O)=O [Compound 393]
398 nM

Please look up its EC50: CC(C)=CCN(c1ccc(C#N)cc1)c1nc(C(=O)NS(C)(=O)=O)c(C)s1 [Compound 439]
126 nM

Please look up its EC50: Cc1oc(N(CCc2ccc(Cl)cc2)Cc2ccccc2)nc1C(=O)NS(C)(=O)=O [Example 220]
316 nM

Please look up its EC50: Cc1sc(N(CCc2ccc(Cl)cc2)Cc2ccc(Cl)cc2)nc1C(=O)NS(=O)(=O)Cc1cccnc1 [Compound 695]
63.1 nM

Please look up its EC50: Cc1sc(N(Cc2cccc(Cl)c2)c2ccc(C#N)cc2)nc1C(=O)NS(C)(=O)=O [Compound 18]
50.1 nM

Please look up its EC50: COc1ccc(CCN(c2ccc(C#N)cc2)c2nc(C(=O)NS(C)(=O)=O)c(C)s2)cc1 [Compound 400]
> 10000 nM

Please look up its EC50: Cc1sc(N(CC23CC4CC(CC(C4)C2)C3)c2ccc(C#N)cc2)nc1C(=O)NS(C)(=O)=O [Compound 76]
> 10000 nM

Please look up its EC50: CS(=O)(=O)NC(=O)c1nc(N(Cc2ccc(OC(F)F)cc2)c2ccc(C#N)cc2)sc1Br [Example 256]
50.1 nM

Please look up its EC50: COCCCS(=O)(=O)NC(=O)c1nc(N(Cc2ccc(OC(F)F)cc2)c2ccc(C#N)cc2)sc1C [Example 165]
158 nM

Please look up its EC50: CCC(CC)CN(c1ccc(C#N)cc1)c1nc(C(=O)NS(C)(=O)=O)c(C)s1 [Compound 65]
> 10000 nM

Please look up its EC50: COCCCS(=O)(=O)NC(=O)c1nc(N(CCc2ccc(C#N)cc2)Cc2ccc(F)cc2)oc1C [Compound 556]
1260 nM

Please look up its EC50: Cc1sc(N(Cc2ccc(Cl)cc2)Cc2csc3cc(C#N)ccc23)nc1C(=O)NS(C)(=O)=O [Example 305]
> 10000 nM

Please look up its EC50: Cc1sc(N(CC2CCN(C)CC2)c2ccc(C#N)cc2)nc1C(=O)NS(C)(=O)=O [Compound 351]
> 10000 nM

Please look up its EC50: CS(=O)(=O)NC(=O)c1nc(N(Cc2ccc(Cl)cc2)c2ccc(C#N)cc2)sc1C1CC1 [Compound 661]
501 nM

Please look up its EC50: Cc1sc(N(CCc2ccc(Cl)cc2)Cc2ccc(Cl)cc2)nc1C(=O)NS(=O)(=O)C1CC1 [Compound 694]
3160 nM

Please look up its EC50: Cc1sc(N(Cc2ccc3c(c2)OCCO3)c2ccc(C#N)cc2)nc1C(=O)NS(C)(=O)=O [Compound 123]
100 nM

Please look up its EC50: Cc1sc(N(Cc2ccc(C(F)(F)F)nc2)c2ccc(C#N)cc2)nc1C(=O)NS(C)(=O)=O [Compound 154]
200 nM

Please look up its EC50: Cc1sc(N(Cc2ccc(F)cc2)c2ccc(C#N)cc2)nc1C(=O)NS(=O)(=O)Cc1cccnc1 [Compound 122]
20 nM

Please look up its EC50: Cc1sc(N(Cc2cccc3nsnc23)c2ccc(C#N)cc2)nc1C(=O)NS(C)(=O)=O [Compound 437]
126 nM

Please look up its EC50: COc1cccc(CCN(Cc2ccccc2)c2nc(C(=O)NS(C)(=O)=O)c(C)s2)c1 [Example 308]
5010 nM

Please look up its EC50: Cc1sc(N(Cc2ccc(OC(F)(F)F)cc2)c2ccc(C#N)cc2)nc1C(=O)NS(=O)(=O)CCCCO [Example 201]
39.8 nM

Please look up its EC50: Cc1sc(N(Cc2cc(OC(F)F)ccc2F)c2ccc(C#N)cc2)nc1C(=O)NS(C)(=O)=O [Compound 520]
316 nM

Please look up its EC50: Cc1sc(N(CC2CCC(F)(F)CC2)c2ccc(C#N)cc2)nc1C(=O)NS(C)(=O)=O [Compound 39]
1260 nM

Please look up its EC50: Cc1oc(N(Cc2cccc(F)c2)c2ccc(C#N)cc2)nc1C(=O)NS(C)(=O)=O [Compound 612]
3980 nM
